- Tested target: c-Met (cytoplasmic domain) (Homo sapiens, UniProt P08581)
- Construct: 10 ng/mL c-Met (cytoplasmic domain, Invitrogen Corporation #PV3143); purchased Invitrogen Corporation PV3143
- Sequence (P08581 956-1390 limits assumed): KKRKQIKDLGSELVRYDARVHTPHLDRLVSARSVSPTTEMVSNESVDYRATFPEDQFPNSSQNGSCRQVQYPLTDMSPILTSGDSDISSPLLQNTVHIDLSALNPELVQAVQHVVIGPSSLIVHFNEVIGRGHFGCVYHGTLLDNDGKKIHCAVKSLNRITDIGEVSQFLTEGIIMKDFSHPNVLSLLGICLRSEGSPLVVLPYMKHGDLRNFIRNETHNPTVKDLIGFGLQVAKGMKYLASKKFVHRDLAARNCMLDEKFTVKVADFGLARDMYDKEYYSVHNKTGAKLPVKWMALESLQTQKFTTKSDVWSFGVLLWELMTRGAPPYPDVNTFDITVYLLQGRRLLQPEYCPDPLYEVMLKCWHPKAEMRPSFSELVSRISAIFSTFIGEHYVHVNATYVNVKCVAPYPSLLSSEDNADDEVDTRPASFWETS
- Measurement protocol: c-Met Kinase Assay (same methods as for ALK, with modifications)
- Assay type: biochemical
- Condition info: c-Met kinase inhibition, 1 μM ATP (Km level); read-out: cMet Activity
pIC50: −log10 of the molar value.
pIC50 values for the molecules below.

molecule="CCC1C(=O)N(CC)CCc2cc(Nc3ncc(Cl)c(NC4CCCCC4NS(C)(=O)=O)n3)c(OC)cc21 (stereo not shown)" tested_target="c-Met (cytoplasmic domain) (Homo sapiens, UniProt P08581)" recorded_value="< 5.00"
molecule="CNC(=O)c1ccccc1Nc1nc(Nc2ccc3c(c2Cl)C2CCC(C3)N2)ncc1Cl (stereo not shown)" tested_target="c-Met (cytoplasmic domain) (Homo sapiens, UniProt P08581)" recorded_value="6.00 to 7.00"
molecule=CCN1C(=O)C(C)(C)CCc2c1ccc(Nc1ncc(Cl)c(Nc3ccc(N4CCOCC4)cc3OC)n1)c2OC tested_target="c-Met (cytoplasmic domain) (Homo sapiens, UniProt P08581)" recorded_value="< 5.00"

Input: Reported pIC50 for c-Met (cytoplasmic domain) (Homo sapiens, UniProt P08581), given CNC(=O)[C@@H]1CCC[C@@H]1Nc1nc(Nc2ccc3c(c2)CCN(CCOC)CC3)ncc1Cl (relative stereo) ?
Output: 6.00 to 7.00

Input: Field: pIC50 (c-Met (cytoplasmic domain) (Homo sapiens, UniProt P08581)). Entry: COc1cc(N2CCOCC2)ccc1Nc1nc(Nc2ccc3c(c2OC)CCCC(=O)N3C)ncc1Cl
Output: < 5.00

Input: Hello, I am looking for reported pIC50 with c-Met (cytoplasmic domain) (Homo sapiens, UniProt P08581) for COc1cc2c(cc1Nc1ncc(Cl)c(Nc3ccc(N4CCOCC4)cc3OC)n1)CCN(CCNC(C)=O)CC2 . Could you help?
Output: < 5.00

Input: So what pIC50 did CNC(=O)c1ccccc1Nc1nc(Nc2ccc3c(c2)COCC2CCCCN32)ncc1Cl (stereo not shown) get with c-Met (cytoplasmic domain) (Homo sapiens, UniProt P08581)?
Output: > 7.00
